Values were extracted from paper PMC9482650.

# System name: IL16_4, Q14005
# Sequence (Q14005 1229-1329): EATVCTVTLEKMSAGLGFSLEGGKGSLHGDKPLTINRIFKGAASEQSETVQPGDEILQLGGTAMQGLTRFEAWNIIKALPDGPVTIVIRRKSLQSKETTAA
# Experiment summary: holdup assay
# Parameters: key: below the threshold = too weak to quantify, mostly under pKd 3.1 to 4
# Measurement parameters: plain residues with an end cap or a label only (N-terminal biotin on a linker: ahx)
Property measured: pKd

{"Binder": "NRKREIFSNF [NHERF2, Q15599]", "Property measured": "pKd", "Result": "below the threshold"}
{"Binder": "ESLLLGPSNF [SHROOM4, Q9ULL8]", "Property measured": "pKd", "Result": "below the threshold"}
{"Binder": "GYDWGPATDL [TJP3, O95049]", "Property measured": "pKd", "Result": "below the threshold"}
{"Binder": "HNAFLSVTTV [PDZRN4, Q6ZMN7]", "Property measured": "pKd", "Result": 3.58}
